System: HeLa Kyoto;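 note: synchronized HeLa Kyoto cells, proteins quantified by TMT10plex mass spectrometry, three biological replicates, mitosis taken 0.5 h after nocodazole release, G1/S directly after double thymidine block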
Test: thermal stability score vs G1/S (z-score of summed log2 fold changes over temperatures); higher = more thermally stable than in G1/S
Conditions: cell cycle stage: mitosis
Overview of reported thermal stability score across a group of sequences:
The response must contain the number and no unit.

Solved cases below.
item.sequence	thermal stability score
MSKSLKKLVEESREKNQPEVDMSDRGISNMLDVNGLFTLSHITQLVLSHNKLTMVPPNIAELKNLEVLNFFNNQIEELPTQISSLQKLKHLNLGMNRLNTLPRGFGSLPALEVLDLTYNNLSENSLPGNFFYLTTLRALYLSDNDFEILPPDIGKLTKLQILSLRDNDLISLPKEIGELTQLKELHIQGNRLTVLPPELGNLDLTGQKQVFKAENNPWVTPIADQFQLGVSHVFEYIRSETYKYLYGRHMQANPEPPKKNNDKSKKISRKPLAAKNR [RSU1]	-1.96
MTAPCPPPPPDPQFVLRGTQSPVHALHFCEGAQAQGRPLLFSGSQSGLVHIWSLQTRRAVTTLDGHGGQCVTWLQTLPQGRQLLSQGRDLKLCLWDLAEGRSAVVDSVCLESVGFCRSSILAGGQPRWTLAVPGRGSDEVQILEMPSKTSVCALKPKADAKLGMPMCLRLWQADCSSRPLLLAGYEDGSVVLWDVSEQKVCSRIACHEEPVMDLDFDSQKARGISGSAGKALAVWSLDWQQALQVRGTHELTNPGIAEVTIRPDRKILATAGWDHRIRVFHWRTMQPLAVLAFHSAAVQCVAFTADGLLAAGSKDQRISLWSLYPRA [GNB1L]	-0.0471
MAARWRFWCVSVTMVVALLIVCDVPSASAQRKKEMVLSEKVSQLMEWTNKRPVIRMNGDKFRRLVKAPPRNYSVIVMFTALQLHRQCVVCKQADEEFQILANSWRYSSAFTNRIFFAMVDFDEGSDVFQMLNMNSAPTFINFPAKGKPKRGDTYELQVRGFSAEQIARWIADRTDVNIRVIRPPNYAGPLMLGLLLAVIGGLVYLRRSNMEFLFNKTGWAFAALCFVLAMTSGQMWNHIRGPPYAHKNPHTGHVNYIHGSSQAQFVAETHIVLLFNGGVTLGMVLLCEAATSDMDIGKRKIMCVAGIGLVVLFFSWMLSIFRSKYHGYPYSFLMS [MAGT1]	2.05

Q: Value wanted: thermal stability score (HeLa Kyoto) of entry MSEVTRSLLQRWGASFRRGADFDSWGQLVEAIDEYQILARHLQKEAQAQHNNSEFTEEQKKTIGKIATCLELRSAALQSTQSQEEFKLEDLKKLEPILKNILTYNKEFPFDVQPVPLRRILAPGEEENLEFEEDEEEGGAGAGSPDSFPARVPGTLLPRLPSEPGMTLLTIRIEKIGLKDAGQCIDPYITVSVKDLNGIDLTPVQDTPVASRKEDTYVHFNVDIELQKHVEKLTKGAAIFFEFKHYKPKKRFTSTKCFAFMEMDEIKPGPIVIELYKKPTDFKRKKLQLLTKKPLYLHLHQTLHKE [AIDA]
Ans: -0.48

Q: Same thing, different sequence: MWSGRKLGSSGGWFLRVLGPGGCNTKAARPLISSAVYVKNQLSGTLQIKPGVFNEYRTIWFKSYRTIFSCLNRIKSFRYPWARLYSTSQTTVDSGEVKTFLALAHKWWDEQGVYAPLHSMNDLRVPFIRDNLLKTIPNHQPGKPLLGMKILDVGCGGGLLTEPLGRLGASVIGIDPVDENIKTAQCHKSFDPVLDKRIEYRVCSLEEIVEETAETFDAVVASEVVEHVIDLETFLQCCCQVLKPGGSLFITTINKTQLSYALGIVFSEQIASIVPKGTHTWEKFVSPETLESILESNGLSVQTVVGMLYNPFSGYWHWSENTSLNYAAYAVKSRVQEHPASAEFVLKGETEELQANACTNPAVHEKLKK [COQ3]
Ans: -0.988
